Data provenance: patent US10597388B2

Test system: bromegrass, downy (downy bromegrass, Bromus tectorum)
protocol-text: Test D controlled growth environment herbicide test, pre- and postemergence
Type: in vivo
condition-parameters: Preemergence, 62 g ai/ha; scale 0 to 100 (0 no effect, 100 complete control)
test-readout: Plant response rating, Bromegrass, Downy

INSERT INTO results (smiles_str, test_readout, value_measured) VALUES
  ('CC(=O)Oc1c(Br)nn(C)c(=O)c1-c1c(C)ccc2ccccc12', 'Plant response rating, Bromegrass, Downy', 15),
  ('CCOC(=O)Oc1c(C)nn(C)c(=O)c1-c1c(C)sc2c(C)cc(C)cc12', 'Plant response rating, Bromegrass, Downy', 30),
  ('COC(=O)Oc1c(C)nn(C)c(=O)c1-c1c(C)sc2c(C)cc(C)cc12', 'Plant response rating, Bromegrass, Downy', 45),
  ('COc1nn(C)c(=O)c(-c2c(C)ccc3ccccc23)c1OC(=O)OC(C)C', 'Plant response rating, Bromegrass, Downy', 0);

====

Tested on: lambsquarters (Chenopodium album)
protocol-text: Test C greenhouse herbicide test, pre- and postemergence
Type: in vivo
condition-parameters: Preemergence, 31 g ai/ha; scale 0 to 100, 0 is no effect, 100 is complete control
This listing pairs molecules with measured Plant response rating, Lambsquarters.
test-readout: Plant response rating, Lambsquarters

INSERT INTO results (molecule, value_measured) VALUES
  ('CCOC(=O)Oc1c(C)nn(C)c(=O)c1-c1c(C)sc2ccc(C)cc12 [Compound 82]', 85),
  ('CCC(=O)Oc1c(Cl)nn(C)c(=O)c1-c1c(C)sc2ccc(Cl)cc12 [Compound 111]', 90),
  ('CC(=O)Oc1c(Br)nn(C)c(=O)c1-c1c(C)ccc2ccccc12 [Compound 129]', 85),
  ('C#CCOC(=O)Oc1c(C)nn(C)c(=O)c1-c1c(C)sc2ccc(C)cc12 [Compound 87]', 55),
  ('COc1nn(C)c(=O)c(-c2c(C)ccc3ccccc23)c1OC(C)=O [Compound 138]', 95);

====

Test system: corn (Zea mays)
protocol-text: Test A greenhouse herbicide test, pre- and postemergence
Type: in vivo
condition-parameters: Postemergence, 125 g ai/ha; 0 to 100 scale, 0 no effect, 100 complete control
test-readout: Plant response rating, Corn

INSERT INTO results (smiles_str, value_measured) VALUES
  ('COC(=O)Oc1c(C)nn(C)c(=O)c1-c1c([N+](=O)[O-])ccc2ccccc12', 20),
  ('Cc1nn(C)c(=O)c(-c2ccc(Cl)c3ccccc23)c1OS(=O)(=O)N(C)C', 0),
  ('Cc1n[nH]c(=O)c(-c2cccc3ccccc23)c1OC(F)F', 0),
  ('Cc1ccc2ccccc2c1-c1c(OS(C)(=O)=O)c(Br)nn(C)c1=O', 0),
  ('Cc1nn(C)c(=O)c(-c2c([N+](=O)[O-])ccc3ccccc23)c1OC(=O)C(C)(C)C', 0);

====

This listing pairs compounds with measured Plant response rating, Chamomile.
Tested on: chamomile (scentless chamomile, Matricaria inodora)
protocol-text: Test D controlled growth environment herbicide test, pre- and postemergence
Type: in vivo
condition-parameters: Postemergence, 125 g ai/ha; visual rating on scale 0 (no effect) to 100 (complete control), 14 to 21 d
test-readout: Plant response rating, Chamomile

INSERT INTO results (smiles_str, test_readout, value_measured) VALUES
  ('Cc1cc(C)c2sc(C)c(-c3c(OC(=O)OCCCl)c(C)nn(C)c3=O)c2c1', 'Plant response rating, Chamomile', 90),
  ('C#CCOC(=O)Oc1c(C)nn(C)c(=O)c1-c1c(C)sc2ccc(C)cc12', 'Plant response rating, Chamomile', 100),
  ('COc1nn(C)c(=O)c(-c2c(C)ccc3ccccc23)c1O', 'Plant response rating, Chamomile', 100),
  ('Cc1ccc2ccc(C)c(-c3c(O)c(C)nn(C)c3=O)c2c1', 'Plant response rating, Chamomile', 100),
  ('Cc1cc(C)c2sc(C)c(-c3c(OC(=O)OC(C)C)c(C)nn(C)c3=O)c2c1', 'Plant response rating, Chamomile', 100);

====

Tested on: ryegrass, Italian (Italian ryegrass, Lolium multiflorum)
protocol-text: Test C greenhouse herbicide test, pre- and postemergence
Type: in vivo
condition-parameters: Preemergence, 31 g ai/ha; scale 0 to 100, 0 is no effect, 100 is complete control
This listing pairs compounds with measured Plant response rating, Ryegrass, Italian.
test-readout: Plant response rating, Ryegrass, Italian

INSERT INTO measurements (smiles_str, system_tested, test_readout, value_measured) VALUES
  ('Cc1ccc2ccc(C)c(-c3c(O)c(C)nn(C)c3=O)c2c1', 'ryegrass, Italian (Italian ryegrass, Lolium multiflorum)', 'Plant response rating, Ryegrass, Italian', 90),
  ('CC(=O)Oc1c(C)nn(C)c(=O)c1-c1ccc(F)c2ccccc12', 'ryegrass, Italian (Italian ryegrass, Lolium multiflorum)', 'Plant response rating, Ryegrass, Italian', 90),
  ('Cc1cc(C)c2sc(C)c(-c3c(OC(=O)OCCCl)c(C)nn(C)c3=O)c2c1', 'ryegrass, Italian (Italian ryegrass, Lolium multiflorum)', 'Plant response rating, Ryegrass, Italian', 85),
  ('Cc1cc(C)c2ccccc2c1-c1c(OS(C)(=O)=O)c(C)nn(C)c1=O', 'ryegrass, Italian (Italian ryegrass, Lolium multiflorum)', 'Plant response rating, Ryegrass, Italian', 40),
  ('CC(=O)Oc1c(C)nn(C)c(=O)c1-c1c(C)sc2c(C)cc(C)cc12', 'ryegrass, Italian (Italian ryegrass, Lolium multiflorum)', 'Plant response rating, Ryegrass, Italian', 85),
  ('COC(=O)Oc1c(Br)nn(C)c(=O)c1-c1c(C)ccc2ccccc12', 'ryegrass, Italian (Italian ryegrass, Lolium multiflorum)', 'Plant response rating, Ryegrass, Italian', 85),
  ('C#CCOC(=O)Oc1c(C)nn(C)c(=O)c1-c1c(C)sc2ccc(C)cc12', 'ryegrass, Italian (Italian ryegrass, Lolium multiflorum)', 'Plant response rating, Ryegrass, Italian', 35),
  ('Cc1cc(C)c2sc(C)c(-c3c(OC(=O)OC(C)C)c(C)nn(C)c3=O)c2c1', 'ryegrass, Italian (Italian ryegrass, Lolium multiflorum)', 'Plant response rating, Ryegrass, Italian', 30),
  ('COc1nn(C)c(=O)c(-c2c(C)ccc3ccccc23)c1O', 'ryegrass, Italian (Italian ryegrass, Lolium multiflorum)', 'Plant response rating, Ryegrass, Italian', 55),
  ('CCCC(=O)Oc1c(C)nn(C)c(=O)c1-c1c(C)sc2c(C)cc(C)cc12', 'ryegrass, Italian (Italian ryegrass, Lolium multiflorum)', 'Plant response rating, Ryegrass, Italian', 50);

====

System: arrowleaf sida (Sida rhombifolia)
protocol-text: Test E greenhouse herbicide test, pre- and postemergence
Format: in vivo
condition-parameters: 62 g ai/ha, Postemergence; scale 0 to 100 (0 no effect, 100 complete control)
Text: […]
test-readout: Plant response rating, Arrowleaf Sida

INSERT INTO measurements (compound, value_measured) VALUES
  ('CCC(=O)Oc1c(C)nn(C)c(=O)c1-c1c(C)sc2ccc(Cl)cc12 [Compound 109]', 60),
  ('CC(=O)Oc1c(C)nn(C)c(=O)c1-c1c(C)sc2ccc(C)cc12 [Compound 25]', 75),
  ('COc1nn(C)c(=O)c(-c2c(C)sc3ccc(Cl)cc23)c1O [Compound 100]', 60),
  ('CCOC(=O)Oc1c(C)nn(C)c(=O)c1-c1c(C)sc2ccc(C)cc12 [Compound 82]', 70),
  ('CCC(=O)Oc1c(C)nn(C)c(=O)c1-c1c(C)sc2ccc(C)cc12 [Compound 42]', 60);

====

This listing pairs molecules with measured Plant response rating, Oilseed Rape.
System: oilseed rape (Brassica napus)
protocol-text: Test D controlled growth environment herbicide test, pre- and postemergence
Type: in vivo
condition-parameters: Preemergence, 62 g ai/ha; scale 0 to 100 (0 no effect, 100 complete control)
Description: […]
test-readout: Plant response rating, Oilseed Rape

INSERT INTO measurements (smiles_str, test_readout, value_measured) VALUES
  ('Cc1ccc2ccccc2c1-c1c(O)c(C)nn(C)c1=O', 'Plant response rating, Oilseed Rape', 30),
  ('COc1nn(C)c(=O)c(-c2c(C)ccc3ccccc23)c1OC(=O)OC(C)C', 'Plant response rating, Oilseed Rape', 0),
  ('Cc1cc(C)c2sc(C)c(-c3c(OC(=O)OC(C)C)c(C)nn(C)c3=O)c2c1', 'Plant response rating, Oilseed Rape', 20),
  ('CC(=O)Oc1c(C)nn(C)c(=O)c1-c1c(C)sc2ccc(C)cc12', 'Plant response rating, Oilseed Rape', 0);

====

This listing pairs compounds with measured Plant response rating, Lambsquarters.
Test system: lambsquarters (Chenopodium album)
protocol-text: Test D controlled growth environment herbicide test, pre- and postemergence
Assay type: in vivo
condition-parameters: Postemergence, 125 g ai/ha; visual rating on scale 0 (no effect) to 100 (complete control), 14 to 21 d
test-readout: Plant response rating, Lambsquarters

INSERT INTO results (compound, value_measured) VALUES
  ('CC(=O)Oc1c(C)nn(C)c(=O)c1-c1ccc(F)c2ccccc12 [Compound 90]', 100),
  ('CCOC(=O)Oc1c(C)nn(C)c(=O)c1-c1c(C)ccc2ccccc12 [Compound 73]', 100),
  ('Cc1ccc2ccc(C)c(-c3c(O)c(C)nn(C)c3=O)c2c1 [Compound 60]', 80),
  ('COc1nn(C)c(=O)c(-c2c(C)ccc3ccccc23)c1OC(=O)OC(C)C [Compound 36]', 100);
